biological target: Insulin-degrading enzyme (Homo sapiens); experiment: human IDE activators in live cells, primary screen, fluorescence polarization, HEK cells, FAbeta-B substrate (AID 493087); settings: FAbeta-B cleavage, at 5.96 µM, stronger effect = higher value, 0% vehicle, 100% cell-free pure enzyme wells
In all, about 340,000 compounds went through this assay and about 240 (0.071%) were called active. For the sample, actives were picked, then their nearest neighbours and some compounds at random.
observation type: activation (%)
Lab book: enter the figure in %, no units written.

// worked examples, activation included
CC1CCN(C(=O)CCNC(=O)c2ccccc2)CC1 : 4.37
C#CCOCCOCCOCCNc1nc(N2CCN(C(=O)[C@H](CCC(=O)O)n3cc(CN)nn3)CC2)nc(N2CCN(C(=O)[C@H](CCC(=O)O)n3cc(CN)nn3)CC2)n1 : 1.77
C#CCOCCOCCOCCNc1nc(N2CCN(C(=O)CCCCCCCCCCNC(=O)[C@H]([C@@H](C)CC)n3cc(CCCCN=C(N)N)nn3)CC2)nc(N2CCN(C(=O)CCCCCCCCCCNC(=O)[C@H](CO)n3cc(CCCSC)nn3)CC2)n1 : 58
C#CCOCCOCCOCCNc1nc(N2CCN(C(=O)CCCCCCCCCCNC(=O)[C@H](CCCCN)n3cc(C)nn3)CC2)nc(N2CCN(C(=O)CCCCCCCCCCNC(=O)[C@H](CO)n3cc(CCCSC)nn3)CC2)n1 : 29.3

Bench note, Insulin-degrading enzyme (Homo sapiens): COc1cc(Cl)cc(C2NC(=O)NC(C)=C2C(=O)NCc2ccccc2)c1O (stereo unspecified) , activation reads -1.41

Bench note, Insulin-degrading enzyme (Homo sapiens): "C#CCOCCOCCOCCNc1nc(N2CCN(C(=O)Cn3cc(CCO)nn3)CC2)nc(N2CCN(C(=O)[C@H](CCCCN)n3cc(CCCC)nn3)CC2)n1" , activation reads 2.74
